- Tested on: NCI-H650
- ASSAY EXPLANATION: relative viability (nuclei count vs DMSO), 5 days (fraction); higher = more cells survive
- CONDITIONS: first compound 0.01 µM
REPORTED PROPERTY: relative viability
One number for each entry.

I would be grateful if you could provide relative viability for each of the following entries.
1. CC(C)Oc1cc(Nc2nc(N[C@@H](C)c3ccc(F)cn3)ncc2Cl)n[nH]1 [AZ23] + Nc1nc2[nH]cc(CCc3ccc(C(=O)N[C@@H](CCC(=O)O)C(=O)O)cc3)c2c(=O)[nH]1 [Pemetrexed] (partner 0.2 µM)
2. CC(C)Oc1cc(Nc2nc(N[C@@H](C)c3ccc(F)cn3)ncc2Cl)n[nH]1 [AZ23] + CS(=O)(=O)CCNCc1ccc(-c2ccc3ncnc(Nc4ccc(OCc5cccc(F)c5)c(Cl)c4)c3c2)o1 [Lapatinib] (partner 2 µM)
3. CC(C)Oc1cc(Nc2nc(N[C@@H](C)c3ccc(F)cn3)ncc2Cl)n[nH]1 [AZ23] + N=C(N)NC(=N)NCCc1ccccc1 [Phenformin] (partner 250 µM)
4. CC(C)Oc1cc(Nc2nc(N[C@@H](C)c3ccc(F)cn3)ncc2Cl)n[nH]1 [AZ23] + CCNC(=O)c1noc(-c2cc(C(C)C)c(O)cc2O)c1-c1ccc(CN2CCOCC2)cc1 [Luminespib] (partner 0.01 µM)
5. CC(C)Oc1cc(Nc2nc(N[C@@H](C)c3ccc(F)cn3)ncc2Cl)n[nH]1 [AZ23] + CC(C)C[C@H](NC(=O)[C@H](Cc1ccccc1)NC(=O)c1cnccn1)B(O)O [Bortezomib] (partner 0.002 µM)
6. CC(C)Oc1cc(Nc2nc(N[C@@H](C)c3ccc(F)cn3)ncc2Cl)n[nH]1 [AZ23] + O=C(CCCCCCC(=O)Nc1ccccc1)NO [Vorinostat] (partner 1 µM)
7. CC(C)Oc1cc(Nc2nc(N[C@@H](C)c3ccc(F)cn3)ncc2Cl)n[nH]1 [AZ23] + C[C@]1(O)C[C@@H](c2nc(-c3ccc4ccc(-c5ccccc5)nc4c3)c3c(N)nccn32)C1 [Linsitinib] (partner 1 µM)

0.936
0.649
0.432
0.665
0.71
0.411
0.648

###

- System: NCI-H647
- ASSAY EXPLANATION: relative viability (nuclei count vs DMSO), 5 days (fraction); higher = more cells survive
- CONDITIONS: first compound 2.53 µM
relative viability under 0.5 gets class 1, anything at or over 0.5 gets class 0.

MOLECULE	TESTED TARGET	CLASS NAME
CCCCCCCCCCCC1=C(O)C(=O)C=C(O)C1=O [Embelin] + COc1cccc2cc(-c3nc([C@H]4CC[C@H](C(=O)O)CC4)n4ncnc(N)c34)[nH]c12 [OSI-027] (partner 0.5 µM)	NCI-H647	class 0

Lab log: compare recorded relative viability with 0.5; is it strictly lower for CCCCCCCCCCCC1=C(O)C(=O)C=C(O)C1=O [Embelin] + NC(=O)Nc1cc(-c2cccc(F)c2)sc1C(=O)N[C@H]1CCCNC1 [AZD7762] (partner 0.2 µM) ?
class 1

Another: CCCCCCCCCCCC1=C(O)C(=O)C=C(O)C1=O [Embelin] + O=C(CCCCCCC(=O)Nc1ccccc1)NO [Vorinostat] (partner 1 µM)
class 0

What do you get for CCCCCCCCCCCC1=C(O)C(=O)C=C(O)C1=O [Embelin] + Cc1nc(NC(=O)N2CCC[C@H]2C(N)=O)sc1-c1ccnc(C(C)(C)C(F)(F)F)c1 [Alpelisib] (partner 2 µM) ?
class 0

Check CCCCCCCCCCCC1=C(O)C(=O)C=C(O)C1=O [Embelin] + COc1cc2c(Oc3ccc(NC(=O)C4(C(=O)Nc5ccc(F)cc5)CC4)cc3F)ccnc2cc1OCCCN1CCOCC1 [Foretinib] (partner 0.25 µM) too.
class 0

Here is the next molecule: CCCCCCCCCCCC1=C(O)C(=O)C=C(O)C1=O [Embelin] + Cc1cc(Nc2cc(N3CCN(C)CC3)nc(Sc3ccc(NC(=O)C4CC4)cc3)n2)n[nH]1 [Tozasertib] (partner 0.1 µM)
class 1

Repeat for the following molecule: CCCCCCCCCCCC1=C(O)C(=O)C=C(O)C1=O [Embelin] + N=C(N)NC(=N)NCCc1ccccc1 [Phenformin] (partner 250 µM)
class 0

These entries and their values trace back to the supplement of paper PMC10307832.
